Assignment: determine reported IC50 for the given compounds.
- systemName: Recombinant BTK^WT kinase (Homo sapiens)
- Sequence (Q06187 whole entry): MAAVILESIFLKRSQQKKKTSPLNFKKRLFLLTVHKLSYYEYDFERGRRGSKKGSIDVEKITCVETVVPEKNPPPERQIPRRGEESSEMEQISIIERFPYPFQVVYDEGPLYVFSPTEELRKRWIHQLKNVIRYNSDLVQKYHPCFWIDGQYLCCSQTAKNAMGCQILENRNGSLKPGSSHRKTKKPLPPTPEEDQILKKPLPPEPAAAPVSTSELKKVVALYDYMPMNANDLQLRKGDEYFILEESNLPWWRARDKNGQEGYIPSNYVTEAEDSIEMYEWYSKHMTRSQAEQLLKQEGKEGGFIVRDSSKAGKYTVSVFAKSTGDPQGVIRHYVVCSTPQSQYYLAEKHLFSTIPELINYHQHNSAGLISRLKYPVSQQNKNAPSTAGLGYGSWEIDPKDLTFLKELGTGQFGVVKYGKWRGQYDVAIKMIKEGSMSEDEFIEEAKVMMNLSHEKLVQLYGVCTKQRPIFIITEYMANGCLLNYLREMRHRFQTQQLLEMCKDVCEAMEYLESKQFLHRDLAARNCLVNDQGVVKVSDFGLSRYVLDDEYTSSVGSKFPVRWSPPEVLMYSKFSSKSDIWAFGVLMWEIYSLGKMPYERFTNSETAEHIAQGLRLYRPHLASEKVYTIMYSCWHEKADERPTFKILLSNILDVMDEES
- assayProtocol: BTK WT binding affinity (LanthaScreen TR-FRET)
- condition: Kinase Tracer 236, 5 h incubation

[
  {
    "compound": "COc1ccccc1C(=O)NCc1ccc(-c2nn(C(C)(C)C)c(N)c2C(N)=O)cc1 [Example 3]",
    "systemName": "Recombinant BTK^WT kinase (Homo sapiens)",
    "IC50": "< 10 nM"
  },
  {
    "compound": "COc1ccc(F)cc1C(=O)NCc1ccc(-c2nn(CCC(F)(F)F)c(N)c2C(N)=O)cc1 [Example 174]",
    "systemName": "Recombinant BTK^WT kinase (Homo sapiens)",
    "IC50": "< 10 nM"
  },
  {
    "compound": "COc1ccc(F)cc1C(=O)NCc1ccc(-c2nn(C3CCOC3)c(N)c2C(N)=O)cc1F (stereo not drawn) [Example 119]",
    "systemName": "Recombinant BTK^WT kinase (Homo sapiens)",
    "IC50": "< 10 nM"
  },
  {
    "compound": "COc1ccccc1C(=O)NCc1ccc(-c2nn(C3CCOCC3)c(C(F)F)c2C(N)=O)cc1 [Example 108]",
    "systemName": "Recombinant BTK^WT kinase (Homo sapiens)",
    "IC50": "10 to 100 nM"
  },
  {
    "compound": "COc1ccccc1C(=O)NCc1ccc(-c2nn(C3CCC(C(=O)O)CC3)c(N)c2C(N)=O)cc1 (mixture of isomers) [Example 74]",
    "systemName": "Recombinant BTK^WT kinase (Homo sapiens)",
    "IC50": "< 10 nM"
  }
]

For each of the compounds below, note its IC50.
1. COc1ccccc1C(=O)NCc1c(F)cc(-c2nn(C3CCOCC3)c(N)c2C(N)=O)cc1F [Example 132]
2. COc1ccccc1C(=O)NCc1ccc(-c2nn(C3CC3)c(N)c2C(N)=O)cc1 [Example 29]
3. COc1ccc(F)cc1C(=O)NCc1ccc(-c2nn(C3CCNCC3(F)F)c(N)c2C(N)=O)cc1 (stereo not drawn) [Example 186]
4. COc1ccccc1C(=O)NCc1ccc(-c2nn(C(C)C(F)(F)F)c(N)c2C(N)=O)cc1 (stereo not drawn) [Example 121]
5. COc1ccccc1C(=O)NCc1ccc(-c2nn(C3CCC(OCc4ccccc4)CC3)c(N)c2C(N)=O)cc1 (mixture of isomers) [Example 28]
6. COc1ccccc1C(=O)NCc1cc(F)c(-c2nn(C3CCCOC3)c(N)c2C(N)=O)cc1F (stereo not drawn) [Example 151]
7. COc1ccccc1C(=O)NCc1ccc(-c2nn(C3CCCC3)c(N)c2C(N)=O)c(F)c1 [Example 130]
8. COCOCCn1nc(-c2ccc(CNC(=O)c3ccccc3OC)cc2)c(C(N)=O)c1N [Example 7]

Response:
1. 100 to 1000 nM
2. < 10 nM
3. < 10 nM
4. < 10 nM
5. < 10 nM
6. < 10 nM
7. < 10 nM
8. 100 to 1000 nM

For each of the compounds below, note its IC50.
1. COc1ccc(F)cc1C(=O)NCc1ccc(-c2nn(C(C3CCOC3)C(F)(F)F)c(N)c2C(N)=O)cc1 (mixture of isomers) [Example 175]
2. CNc1c(C(N)=O)c(-c2ccc(CNC(=O)c3ccccc3OC)cc2)nn1C1CCCC1 [Example 60]

Response:
1. 10 to 100 nM
2. < 10 nM
